All figures here come from PubChem BioAssay (NCATS).

# Test system: Tov112D
# PROTOCOL_SUMMARY: Primary qHTS to identify gynecologic anti-cancer compounds using libraries of approved drugs and bioactive compounds (AID 1345084); further: nearly all actives have a fitted effect of over 55% in size
# RUN_PARAMETERS: Gynecologic cancer cell panel viability, ATPlite luminescence, 48 h; series mostly up to 57.5 µM
Records with an inconclusive call do not appear. Activity calls are given as the source filed them. The call rests on the fitted dose curve; in most records, active means well fitted cell-killing curve with a large enough effect; inconclusive means small, poorly fitted or top-dose-only effect, or effect the other way; inactive means flat fitted curve, though single readings scatter.
Pick one: true (1) = active, false (0) = inactive

Check out these entries, answers already filled in.
compound=Cc1c(C(=O)Nc2ccc(N3C[C@@H](C)O[C@@H](C)C3)nc2)cccc1-c1ccc(OC(F)(F)F)cc1 assigned_category="false (0)"
compound=O=C(O)CCNc1cc(N2CCc3ccccc3CC2)nc(-c2ccccn2)n1 assigned_category="false (0)"
compound=N#CC1(c2cccc(C(=O)Nc3cc(Oc4ccc5nc(NC(=O)C6CC6)sc5n4)ccc3F)c2Cl)CC1 assigned_category="true (1)"

query: Tell me the assay call for CN1C(=O)C(Cc2c[nH]c3ccccc23)NC1=S (stereo not given) please.
result: false (0)

query: Tell me the assay call for COc1ccc(CCC(=O)Nc2nc3ccc(Cl)cc3s2)cc1OC please.
result: false (0)

query: Tell me the assay call for COc1ccc(Cn2ccc3ccc(C(=O)NO)cc32)cc1 please.
result: false (0)

query: Tell me the assay call for CN1CCC(COc2cnc(-c3cccc(Cn4nc(-c5cccc(C#N)c5)ccc4=O)c3)nc2)CC1 please.
result: false (0)

query: Tell me the assay call for Cc1cc(C(C)Nc2ccccc2)c2nc(N3CCOCC3)cc(=O)n2c1 (stereo not given) please.
result: false (0)

query: Tell me the assay call for C[C@@]1(c2cc(-c3cncnc3)c(F)cc2F)CCSC(N)=N1 please.
result: false (0)

query: Tell me the assay call for N#Cc1ccc(Oc2ccc3c(c2)COB3O)cc1 please.
result: false (0)

query: Tell me the assay call for O=C(Nc1cccc(C(F)(F)F)c1)Nc1cc(S(=O)(=O)NC2CC2)ccc1-c1ccsc1 please.
result: false (0)

query: Tell me the assay call for O=C(c1ccc(C(=O)N2CCC(N3CCCC3)CC2)c(Nc2ccccc2)c1)N1CCC(N2CCCC2)CC1 please.
result: false (0)

query: Tell me the assay call for CNc1nc(Nc2ccc(C(=O)N3CCOCC3)cc2OC)ncc1Cl please.
result: false (0)

query: Tell me the assay call for C[C@@H](NC(=O)c1ncnc(N)c1Cl)c1ncc(C(=O)Nc2cc(C(F)(F)F)c(Cl)cn2)s1 please.
result: false (0)

query: Tell me the assay call for CN(C)c1nc(Cc2ccc(NC(=O)c3ccc(C(F)(F)F)cc3)cc2)nc(N(C)C)c1CC(=O)O please.
result: false (0)

query: Tell me the assay call for O=C(CC12CC3CC(CC(C3)C1)C2)Nc1cccc2nc(NCCNCCO)ccc12 please.
result: false (0)

query: Tell me the assay call for CCN1C[C@H](C)n2c(c(O)c3c(=O)n(Cc4ccc(F)c(Cl)c4)nc(C(=O)NC)c32)C1=O please.
result: false (0)

query: Tell me the assay call for O=C(CO)N1CCC(c2[nH]nc(-c3ccc(Cl)cc3)c2-c2ccncn2)CC1 please.
result: false (0)

query: Tell me the assay call for Cc1ccccc1C(C(=O)NC1CCCCC1)N(C(=O)CNc1ccc(C#N)cc1)c1cccc(F)c1 (stereo not given) please.
result: false (0)

query: Tell me the assay call for CNC(=O)c1c(-c2ccc(F)cc2)oc2cc(N(CCO)S(C)(=O)=O)c(C3CC3)cc12 please.
result: false (0)

###

Listing of entries alongside the reported z-score.
# PROTOCOL_SUMMARY: qHTS for identification of novel therapeutic agents for treatment of microphthalmiaassociated transcription factor (MiT) renal cell carcinoma (RCC) (AID 1963991);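 further: curves scaled with 100% = DMSO viability and 0% = empty wells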
# RUN_PARAMETERS: TFE3-RCC viability, CellTiter-Glo, 48 h; measured here: UOK145 Z-AUC; stronger effect = lower value
Records with an inconclusive call do not appear.
// print number alone

Below: 2 compounds and their reported z-score.
compound=CCCCC[C@H](O)C=C[C@H]1[C@H](O)CC(=O)[C@H]1CC=CCCCC(=O)O reported_value=0.962
compound=CN[C@H]1[C@@H](O[C@@H]2[C@H](O[C@@H]3[C@@H](O)[C@@H](O)[C@@H](N=C(N)N)[C@@H](O)[C@@H]3N=C(N)N)O[C@H](C)[C@@]2(O)C=O)O[C@@H](CO)[C@@H](O)[C@H]1O reported_value=2.73

Shift focus to the following entry.
query: Identify measured z-score associated with c1ccc(CNc2nc(N3CCOc4ccccc43)nc3c2CCCC3)cc1
result: 0.631

###

# PROTOCOL_SUMMARY: qHTS of pediatric cancer cell lines to identify multiple opportunities for drug repurposing: Primary screen for RD cells (AID 1347104); further: nearly all actives have a fitted effect of over 55% in size
# RUN_PARAMETERS: RD rhabdomyosarcoma viability, CellTiter-Glo luminescence, 48 h; series mostly up to 46 µM
Results filed as inconclusive are left out. The source made the active and inactive calls. Calls come from the whole dose curve; as a rule, active = well fitted cell-killing curve with a large enough effect; inconclusive = small, poorly fitted or top-dose-only effect; inactive = flat fitted curve, though single readings scatter.
Pick one: active, inactive

Check out these entries, answers already filled in.
compound=NC(=O)c1ncn([C@@H]2O[C@H](CO)[C@@H](O)[C@@H]2O)n1 assigned_category=inactive
compound=Cn1c(=O)c(-c2c(Cl)cccc2Cl)cc2cnc(Nc3cccc(C(=O)O)c3)nc21 assigned_category=inactive
compound=CC[C@H](C)n1cc(C)c2c(C(=O)NCc3c(C)cc(C)[nH]c3=O)cc(-c3ccc(N4CCNCC4)nc3)cc21 assigned_category=active
compound=CC(=O)OCC(=O)[C@@]12OC(C)(C)O[C@H]1C[C@H]1[C@@H]3C[C@H](F)C4=CC(=O)C=C[C@]4(C)[C@@]3(F)[C@@H](O)C[C@@]12C assigned_category=inactive
compound=NS(=O)(=O)c1cc(Cl)c(Cl)c(S(N)(=O)=O)c1 assigned_category=inactive

query: Tell me the assay call for Cc1ccc(NC(=O)Nc2cc(C(F)(F)F)ccc2F)cc1Nc1ccc2c(c1)NC(=O)C2=Cc1ccc[nH]1 please.
result: active

query: Tell me the assay call for Nc1ncnc2c1c(-c1cccc(OCc3ccccc3)c1)cn2C1CC(CN2CCC2)C1 (stereo not drawn) please.
result: active

query: Tell me the assay call for CC(C)CN(C[C@@H](O)[C@H](Cc1ccccc1)NC(=O)O[C@H]1CO[C@H]2OCC[C@H]21)S(=O)(=O)c1ccc(N)cc1 please.
result: active

###

# PROTOCOL_SUMMARY: qHTS of pediatric cancer cell lines to identify multiple opportunities for drug repurposing: Primary screen for BT-37 cells (AID 1347094)
# RUN_PARAMETERS: BT-37 viability, CellTiter-Glo luminescence, 48 h; series mostly up to 57.3 µM
Results filed as inconclusive are left out. Active and inactive are the calls of the source. Calls follow the shape of the dose curve; as a rule, active = well fitted cell-killing curve with a large enough effect; inconclusive = small, poorly fitted or top-dose-only effect; inactive = flat fitted curve, though single readings scatter.
Pick one: active, inactive

molecule=COc1cc2ncn(-c3cc(OCc4ccccc4S(C)(=O)=O)c(C#N)s3)c2cc1OC assigned_category=inactive

query: Tell me the assay call for CC(C)C[C@H](NC(=O)c1cc2ccccc2s1)C(=O)N1CCN(C(=O)[C@H](CO)NS(=O)(=O)c2ccc(Cl)cc2Cl)CC1 please.
result: active

query: Tell me the assay call for Cc1cccc2c1CC[C@H](CN1CCC(c3c(Cl)cccc3Cl)CC1)C[C@@H]2O please.
result: active

query: Tell me the assay call for CCOC(=O)[C@H](CCc1ccccc1)N[C@@H](C)C(=O)N1CCCC1C(=O)O (some centres not stated) please.
result: inactive

query: Tell me the assay call for C[C@@H]1[C@H](C)CC[C@]2(C(=O)O)CC[C@]3(C)C(=CC[C@@H]4[C@@]5(C)CC[C@H](O)C(C)(C)[C@H]5CC[C@]43C)[C@@H]12 please.
result: inactive

query: Tell me the assay call for CO[C@H]1/C=C\O[C@@]2(C)Oc3c(C)c(O)c4c(O)c(c5c(nc6cc(C)ccn65)c4c3C2=O)NC(=O)C(C)=CC=C[C@H](C)[C@H](O)[C@@H](C)[C@@H](O)[C@@H](C)[C@H](OC(C)=O)[C@H]1C please.
result: inactive

query: Tell me the assay call for c1cc(OCCN2CCCCC2)cc(-c2n[nH]c3ccc(-c4ncn[nH]4)cc23)c1 please.
result: active

###

# Tested on: W2
# PROTOCOL_SUMMARY: qHTS profiling for inhibitors of Plasmodium falciparum proliferation (AID 504749); further: nearly all actives have a fitted effect of over 60% in size
# RUN_PARAMETERS: P. falciparum in erythrocytes, SYBR Green DNA, 72 h; series mostly up to 28.7 µM
Records with an inconclusive call do not appear. Calls of active or inactive are those of the source. Calls come from the whole dose curve; as a rule, active = well fitted inhibition curve with a large enough effect; inconclusive = small, poorly fitted or top-dose-only effect; inactive = flat fitted curve, though single readings scatter.
Pick one: active, inactive

Check out these entries, answers already filled in.
compound=COc1c(C)c2c(c(O)c1CC=C(C)CCC(=O)OCCN1CCOCC1)C(=O)OC2 assigned_category=active
compound=N#Cc1c(N(CC(=O)O)CC(=O)O)sc(C(=O)O)c1CC(=O)O assigned_category=inactive
compound=CS(=O)(=O)c1ccc(C2=C(c3ccccc3)C(=O)OC2)cc1 assigned_category=inactive
compound="N#CC(c1ccc(Cl)cc1)c1c(Cl)cc(-n2ncc(=O)[nH]c2=O)cc1Cl (configuration not stated)" assigned_category=inactive
compound="COc1ccnc(CS(=O)c2nc3ccc(OC(F)F)cc3[nH]2)c1OC (configuration not stated)" assigned_category=inactive
compound="Clc1ccc(COC(Cn2ccnc2)c2ccc(Cl)cc2Cl)c(Cl)c1 (configuration not stated)" assigned_category=active

Next item in the queue.
query: Tell me the assay call for NS(=O)(=O)c1cc(Cl)c(Cl)c(S(N)(=O)=O)c1 please.
result: inactive
